Each recorded value in this set is attributed to patent US20180030149A1.

target: T1, recombinant human ErbB3/Fc fusion protein (human, UniProt P21860 20-643); assay: SPR Biacore T100, 25 C; antibody captured on anti-mouse IgG, rhErbB3-Fc injected
T1 construct: Bought (R&D Systems, Cat. No. 348-RB); the NRG1-α1 assay names Cat. No. 4518-RB instead; also called rhErbB3-Fc; rhErbB3/Fc; not shown: Fc portion of the bought fusion protein
metric_name: Kd (pM)
Supply the numeric figure in pM, leaving out any unit text.

As a guide, the following entries are already answered.
binder	metric_name	value_measured
22A02 (antibody, mouse IgG1, kappa, V domains shown, Murine IgG1/kappa, from hybridoma; also called anti-hErbB3 monoclonal antibody 22A02) VH: QVQLQQPGAELVRPGTSVKLSCKASGYTFTNYWMHWVKQRPGQGLEWIGMIDPSDSYTNYNPKFKGKATLTVDTSSSTAYMQLSSLTSEDSAVYYCARNYSGDYWGQGTTLTVSS VL: DVLMTQTPLSLPVSLGDQASISCRSSQSIVHSNGNTYLEWYLQKPGQSPKLLIYKVSNRFSGVPDRFSGSGSGTDFTLKISRVEAEDLGVYYCFQGSYVPWTFGGGTKLEIKR	Kd	320
04D01 (antibody, mouse IgG1, kappa, V domains shown, Murine IgG1/kappa, purified from hybridoma; also called anti-hErbB3 monoclonal antibody 04D01) VH: QVQLQQPGAELVRPGTSVKLSCKASGYTFTSHWLHWVKQRPGQGLEWIGVLDPSDFYSNYNQNFKGKATLTVDTSSSTAYMQLSSLTSEDSAVYYCARGLLSGDYAMDYWGQGTSVTVSS VL: DVLMTQIPLSLPVSLGDQASISCRSSQSIVHSNGNTYLEWYLQKPGQSPKSLIYKVSNRFSGVPDRFSGSGSGTDFTLKISRVEAEDLGVYYCFQGSYVPWTFGGGTKLEIKR	Kd	250

Continue with the next binder.
Memo: 18H02 (antibody, mouse IgG1, kappa, V domains shown, Murine IgG1/kappa, from hybridoma; also called anti-hErbB3 monoclonal antibody 18H02) VH: QIQLVQSGPELKKPGEAVKISCKSSGYTFTTYGMSWVKQAPGRALKWMGWINTYSGVPTYADDFKGRFAFSLESSASTAYLQINNLKNEDTATYFCARGRDGYQVAWFAYWGQGTLVTVSA VL: ETTVTQSPASLSMAIGDKVTIRCITSTDIDDDMNWFQQKPGEPPKLLISEGNTLRPGVPSRFSGSGYGTDFIFTIENMLSEDVADYYCLQSDNLPYTFGGGTKLEIKR , reported Kd: 91
